Record form. Attribute: EC50. Fill in for each entry.
molecular target: Urotensin-2 receptor (Homo sapiens, UniProt Q9UKP6); experiment: Agonist activity for human Urotensin 2 receptor
Sequence (Q9UKP6 whole entry): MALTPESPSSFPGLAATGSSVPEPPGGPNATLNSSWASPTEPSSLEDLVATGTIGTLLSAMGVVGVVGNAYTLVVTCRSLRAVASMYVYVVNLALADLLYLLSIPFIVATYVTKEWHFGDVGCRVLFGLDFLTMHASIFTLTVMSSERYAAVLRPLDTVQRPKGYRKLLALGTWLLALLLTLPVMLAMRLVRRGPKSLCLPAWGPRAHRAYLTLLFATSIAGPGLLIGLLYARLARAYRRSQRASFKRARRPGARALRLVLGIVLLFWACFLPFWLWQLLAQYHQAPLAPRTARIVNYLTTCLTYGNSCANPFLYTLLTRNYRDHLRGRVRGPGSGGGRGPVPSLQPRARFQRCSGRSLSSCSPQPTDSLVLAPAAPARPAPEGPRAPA
Use µM as the unit, but write only the number.

Looking up CCN(CC)CCC1=C(c2ccccc2)NC(=O)N(C)C1c1ccc(Cl)cc1 (stereo not drawn) , I found its EC50 recorded as 5

Looking up CN(C)CCC1(c2ccc(Cl)cc2)Cc2ccccc2C(=O)O1 (stereo not drawn) , I found its EC50 recorded as 0.3

Looking up CCN(CC)CCC1C(c2ccccc2)=Nc2ccccc2SC1c1ccc(Cl)cc1 (stereo not drawn) , I found its EC50 recorded as 6.3

Each recorded value in this set is attributed to ChEMBL document CHEMBL1143570.
